Entry source: paper PMC11503540

# systemUnderTest: muscarinic receptor (rat brain)
# Construct: native receptors in particulate (40 000 g pellet) preparation of whole brain without cerebellum; subtype mixture not resolved
# testDetails: [3H]NMS displacement, rat brain membranes, filtration
# cond: [3H]NMS 0.3 nM (0.5 nM in data analysis), 30 mM Na+/HEPES pH 7.5, 25 °C, 60 min; competitive
# strict inequality: IC50 < 5 µM yields condition met, everything else yields condition not met

{"columns": ["compound", "classLabel"],
 "data": [
  ["OC[C@H]1O[C@@H](c2ccc(Cl)c(Cc3ccc(O[C@H]4CCOC4)cc3)c2)[C@H](O)[C@@H](O)[C@@H]1O [Empagliflozin]", "condition not met"],
  ["CN1CCC2=C(C1)c1ccccc1Cc1ccccc12 [Setiptiline]", "condition met"],
  ["COCCCOc1ccnc(C[S+]([O-])c2nc3ccccc3[nH]2)c1C (stereo not drawn) [Rabeprazole]", "condition not met"],
  ["CC#CCn1c(N2CCC[C@@H](N)C2)nc2c1c(=O)n(Cc1nc(C)c3ccccc3n1)c(=O)n2C [Linagliptin]", "condition met"],
  ["COc1cc2nc(N3CCN(C(=O)C4COc5ccccc5O4)CC3)nc(N)c2cc1OC (stereo not drawn) [Doxazosin]", "condition not met"],
  ["NC1=NCC2c3ccccc3Cc3ccccc3N12 (stereo not drawn) [Epinastine]", "condition not met"],
  ["Clc1ccccc1CN1CCc2sccc2C1 [Ticlopidine]", "condition not met"],
  ["OC(CCCN1CCCCC1)(c1ccccc1)c1ccccc1 [Difenidol]", "condition met"]
]}
